Data origin, for the record: ChEMBL document CHEMBL1137615

Catalogue of pIC50 readings, one per entry.
target: Metabotropic glutamate receptor 1 (Homo sapiens); test: Antagonist activity at human mGluR1a expressed in CHO cells assessed by measuring intracellular calcium by FLIPR assay
Sequence (Q13255 whole entry): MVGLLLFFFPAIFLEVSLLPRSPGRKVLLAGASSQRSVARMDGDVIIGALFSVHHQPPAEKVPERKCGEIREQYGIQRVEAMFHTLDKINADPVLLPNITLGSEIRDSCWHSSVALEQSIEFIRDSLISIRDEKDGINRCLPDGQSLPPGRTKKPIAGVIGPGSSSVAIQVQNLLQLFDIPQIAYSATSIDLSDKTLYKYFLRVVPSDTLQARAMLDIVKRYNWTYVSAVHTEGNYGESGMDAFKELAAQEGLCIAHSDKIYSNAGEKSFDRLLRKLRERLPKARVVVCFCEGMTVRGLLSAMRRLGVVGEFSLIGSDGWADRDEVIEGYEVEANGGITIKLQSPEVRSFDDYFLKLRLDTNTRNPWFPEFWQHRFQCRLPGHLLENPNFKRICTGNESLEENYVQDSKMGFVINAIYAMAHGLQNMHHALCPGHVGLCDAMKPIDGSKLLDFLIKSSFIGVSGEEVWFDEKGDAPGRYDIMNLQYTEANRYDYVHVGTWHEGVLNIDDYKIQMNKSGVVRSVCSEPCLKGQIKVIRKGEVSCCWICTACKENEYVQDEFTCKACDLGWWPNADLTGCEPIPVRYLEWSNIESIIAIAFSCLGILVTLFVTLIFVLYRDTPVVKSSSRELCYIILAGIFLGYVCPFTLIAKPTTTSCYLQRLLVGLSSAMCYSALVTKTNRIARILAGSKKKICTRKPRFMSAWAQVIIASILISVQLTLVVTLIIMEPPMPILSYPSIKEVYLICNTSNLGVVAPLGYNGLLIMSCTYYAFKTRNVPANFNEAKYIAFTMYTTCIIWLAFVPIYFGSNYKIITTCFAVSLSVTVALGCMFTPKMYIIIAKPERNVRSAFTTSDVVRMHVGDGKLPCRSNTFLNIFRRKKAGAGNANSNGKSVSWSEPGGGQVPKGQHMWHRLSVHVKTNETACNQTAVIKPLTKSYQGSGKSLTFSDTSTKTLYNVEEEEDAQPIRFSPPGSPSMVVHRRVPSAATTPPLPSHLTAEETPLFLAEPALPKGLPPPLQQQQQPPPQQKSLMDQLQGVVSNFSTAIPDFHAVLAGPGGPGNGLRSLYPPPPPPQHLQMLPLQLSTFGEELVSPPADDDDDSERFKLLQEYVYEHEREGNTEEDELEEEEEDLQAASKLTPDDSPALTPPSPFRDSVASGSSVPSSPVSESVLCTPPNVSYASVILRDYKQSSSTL
// returns pIC50 (minus log10 of molar concentration), number only

CSc1nc2c(cnc3sc4c(=O)n(-c5ccc(C)cc5)cnc4c32)s1: 6.20
CNc1c(Br)cnc2sc3c(=O)n(-c4ccc(Cl)cc4)cnc3c12: 8.23
Cc1ccc(-n2cnc3c(sc4ncc5cn[nH]c5c43)c2=O)cc1: 7.77

Alright, here's another compound for you.
input: Field request: pIC50 | item: Cc1ccc(-n2cnc3c(sc4ncc5sc(=S)[nH]c5c43)c2=O)cc1
output: 6.27

====

assay: Cmax in rat at 10 mg/kg, po by CARRS; type: ADME, organism-based; parameters: dose 10 mg/kg, route oral; settings: in vivo
Catalogue of Cmax readings, one per entry.
Answer as a quantity: numeral, then unit.

input: Field request: Cmax | item: C[C@@H]1CNc2c(cnc3sc4c(=O)n(-c5ccc(Cl)cc5)cnc4c23)O1
output: 1420 nM

====

target: Metabotropic glutamate receptor 5 (Homo sapiens, UniProt P41594); assay: Antagonist activity at human mGluR5b expressed in HEK293 cells assessed by measuring intracellular calcium by FLIPR assay
Sequence (P41594 whole entry): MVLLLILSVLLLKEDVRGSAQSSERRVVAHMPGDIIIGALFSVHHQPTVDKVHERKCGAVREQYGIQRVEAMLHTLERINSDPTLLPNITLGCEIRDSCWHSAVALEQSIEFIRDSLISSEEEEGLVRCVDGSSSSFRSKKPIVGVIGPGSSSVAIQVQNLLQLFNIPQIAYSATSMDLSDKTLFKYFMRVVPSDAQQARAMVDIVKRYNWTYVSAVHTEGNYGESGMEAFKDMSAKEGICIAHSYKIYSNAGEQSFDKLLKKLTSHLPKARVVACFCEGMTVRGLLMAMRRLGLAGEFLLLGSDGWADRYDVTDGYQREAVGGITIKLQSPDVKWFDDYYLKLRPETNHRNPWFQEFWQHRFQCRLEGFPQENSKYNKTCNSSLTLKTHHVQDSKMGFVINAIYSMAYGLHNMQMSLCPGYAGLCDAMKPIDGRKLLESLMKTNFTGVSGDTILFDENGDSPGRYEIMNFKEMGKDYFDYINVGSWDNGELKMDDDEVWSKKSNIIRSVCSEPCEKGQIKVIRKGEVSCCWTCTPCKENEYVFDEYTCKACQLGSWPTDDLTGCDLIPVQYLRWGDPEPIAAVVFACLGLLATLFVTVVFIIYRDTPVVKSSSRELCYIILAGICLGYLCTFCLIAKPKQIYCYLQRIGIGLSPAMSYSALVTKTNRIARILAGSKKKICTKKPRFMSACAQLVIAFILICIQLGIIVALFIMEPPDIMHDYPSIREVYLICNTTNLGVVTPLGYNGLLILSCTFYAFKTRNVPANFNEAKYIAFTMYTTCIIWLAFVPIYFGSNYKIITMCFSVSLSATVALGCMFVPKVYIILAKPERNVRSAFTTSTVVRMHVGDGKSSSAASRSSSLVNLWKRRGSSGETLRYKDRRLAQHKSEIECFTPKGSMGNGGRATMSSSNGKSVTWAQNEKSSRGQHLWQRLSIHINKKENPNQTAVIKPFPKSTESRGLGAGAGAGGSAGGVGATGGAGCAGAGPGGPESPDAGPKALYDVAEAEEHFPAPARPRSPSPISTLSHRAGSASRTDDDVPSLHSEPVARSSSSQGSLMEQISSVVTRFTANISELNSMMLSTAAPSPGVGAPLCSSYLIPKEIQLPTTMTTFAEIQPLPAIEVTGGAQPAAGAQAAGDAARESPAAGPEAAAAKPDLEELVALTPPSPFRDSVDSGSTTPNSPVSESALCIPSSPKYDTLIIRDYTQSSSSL
Catalogue of IC50 readings, one per entry.

These recorded examples may help you get a feel for the data.
Cc1ccc(-n2cnc3c(sc4ncc5cc[nH]c5c43)c2=O)cc1: > 1 µM
COc1ccc(-n2cnc3c(sc4ncc5cc[nH]c5c43)c2=O)cc1: > 10 µM
O=c1c2sc3ncc4c(c3c2ncn1-c1ccc(Cl)cc1)NCCO4: > 1 µM
COc1ccc(-n2cnc3c(sc4ncc5c(c43)NC[C@@H](C)O5)c2=O)cc1: > 1 µM

Alright, here's another compound for you.
input: // lookup IC50 | system=Metabotropic glutamate receptor 5 (Homo sapiens, UniProt P41594) | key= C[C@H]1COc2cnc3sc4c(=O)n(-c5ccc(Cl)cc5)cnc4c3c2N1
output: > 1 µM

====

biological target: Metabotropic glutamate receptor 5 (Homo sapiens); assay: Displacement of radioligand from human mGluR5b expressed in HEK293 cells at 1 uM; format: cell-based
Sequence (P41594 21-1212 limits assumed): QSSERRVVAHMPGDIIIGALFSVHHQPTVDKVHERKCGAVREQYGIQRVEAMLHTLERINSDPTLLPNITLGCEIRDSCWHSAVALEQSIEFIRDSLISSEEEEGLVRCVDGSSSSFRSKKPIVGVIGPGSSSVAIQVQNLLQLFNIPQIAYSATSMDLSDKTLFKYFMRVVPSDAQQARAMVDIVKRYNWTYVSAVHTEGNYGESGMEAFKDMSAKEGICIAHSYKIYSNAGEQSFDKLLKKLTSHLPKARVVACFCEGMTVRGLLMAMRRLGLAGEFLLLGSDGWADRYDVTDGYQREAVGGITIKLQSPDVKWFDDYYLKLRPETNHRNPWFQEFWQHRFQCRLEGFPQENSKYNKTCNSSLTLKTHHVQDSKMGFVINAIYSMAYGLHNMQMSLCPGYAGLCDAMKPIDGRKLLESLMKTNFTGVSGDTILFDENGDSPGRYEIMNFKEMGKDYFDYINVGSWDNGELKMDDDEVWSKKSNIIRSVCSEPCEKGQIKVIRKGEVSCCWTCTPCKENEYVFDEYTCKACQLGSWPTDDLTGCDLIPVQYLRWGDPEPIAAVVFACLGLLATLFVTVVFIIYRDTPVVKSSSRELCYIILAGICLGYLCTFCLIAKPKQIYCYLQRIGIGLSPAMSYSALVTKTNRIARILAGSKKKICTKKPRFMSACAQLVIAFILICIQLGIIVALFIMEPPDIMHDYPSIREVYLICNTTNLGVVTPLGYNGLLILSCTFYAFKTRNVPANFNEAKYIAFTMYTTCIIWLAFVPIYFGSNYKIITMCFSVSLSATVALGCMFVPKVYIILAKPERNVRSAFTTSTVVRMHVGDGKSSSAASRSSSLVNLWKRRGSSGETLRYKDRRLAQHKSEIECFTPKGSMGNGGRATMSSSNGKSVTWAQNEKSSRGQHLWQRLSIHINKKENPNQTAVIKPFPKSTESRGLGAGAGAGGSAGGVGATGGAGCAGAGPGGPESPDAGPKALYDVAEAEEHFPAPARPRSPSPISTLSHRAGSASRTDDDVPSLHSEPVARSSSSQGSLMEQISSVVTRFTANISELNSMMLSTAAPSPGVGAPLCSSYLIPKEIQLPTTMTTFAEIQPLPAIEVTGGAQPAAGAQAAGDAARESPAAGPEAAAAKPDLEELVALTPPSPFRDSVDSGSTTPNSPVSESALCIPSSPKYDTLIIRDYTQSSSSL
READOUT_KIND: Activity (%)
Respond with the bare value in %.

These recorded examples may help you get a feel for the data.
CSc1nc2c(cnc3sc4c(=O)n(-c5ccc(C)cc5)cnc4c32)s1: -2
O=c1c2sc3ncc4nc[nH]c4c3c2ncn1-c1ccc(Cl)cc1: -1.7
Cn1cnc2cnc3sc4c(=O)n(-c5ccc(Cl)cc5)cnc4c3c21: 0.15
O=c1c2sc3ncc4cn[nH]c4c3c2ncn1-c1ccc(Cl)cc1: -12
Cc1ccc(-n2cnc3c(sc4ncc5cn[nH]c5c43)c2=O)cc1: 5
O=c1c2sc3ncc4cc[nH]c4c3c2ncn1-c1ccc(Cl)cc1: 1.7
Cc1ccc(-n2cnc3c(sc4ncc5sc(=S)[nH]c5c43)c2=O)cc1: -10

Alright, here's another molecule for you.
input: Field request: Activity | item: Cc1ccc(-n2cnc3c(sc4ncc5sc(=O)[nH]c5c43)c2=O)cc1
output: -8

====

Catalogue of pIC50 readings, one per entry.
biological target: UniProt P41594; assay: Antagonist activity at human mGluR5b expressed in HEK293 cells assessed by measuring intracellular calcium by FLIPR assay
// returns pIC50 (minus log10 of molar concentration), number only

These recorded examples may help you get a feel for the data.
COc1ccc(-n2cnc3c(sc4nccc(N(C)C)c43)c2=O)cc1: 5.00
Cc1ccc(-n2cnc3c(sc4ncc5c(c43)NC[C@@H](C)O5)c2=O)cc1: 6.22

Alright, here's another molecule for you.
input: Field request: pIC50 | item: Cc1ccc(-n2cnc3c(sc4ncc5c(c43)NCCO5)c2=O)cc1
output: 6.15
